B1: Pistol ribozyme (parent)
chain: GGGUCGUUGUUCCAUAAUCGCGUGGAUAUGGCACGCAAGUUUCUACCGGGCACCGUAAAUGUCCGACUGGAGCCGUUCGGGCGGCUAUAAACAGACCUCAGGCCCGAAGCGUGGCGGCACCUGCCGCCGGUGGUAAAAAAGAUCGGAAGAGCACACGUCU

variants of: B1; experiment: aptazyme ON/OFF ratio, guanine; higher = stronger switching; co-transcriptional cleavage with and without guanine
measurement-type: aptazyme ON/OFF ratio

Q: Given the variant U7G U8G U11C C12G C13G , what is its reported aptazyme ON/OFF ratio?
A: 1.23

Q: Entry under review: G9C U10A C12U C13U . Reported aptazyme ON/OFF ratio?
A: 1.07

Q: Given the entry U7C U8G G9U C13G , report its measured aptazyme ON/OFF ratio.
A: 1.06

Q: # aptazyme ON/OFF ratio lookup, item U7C U8C G9C U10C U11G C12A C13U
A: 1.09

Q: Form field: reported aptazyme ON/OFF ratio of U7A U8A U11G C12U C13U
A: 1.35

Q: Quick one: aptazyme ON/OFF ratio for U7C U8C G9A U10C U11C C13U ?
A: 1.19

Q: Fill blank: measured aptazyme ON/OFF ratio of the variant U7A U8C G9A U10C U11G is ____.
A: 1.16

Q: Bench note: what aptazyme ON/OFF ratio did U7C U8A G9A U10A U11A C12U C13A show?
A: 1.2

Q: Suppose we examine the variant G9U U10G U11A C12G C13A ; what aptazyme ON/OFF ratio value has been reported?
A: 1.18

Q: Recorded aptazyme ON/OFF ratio of U8C U10C U11G C12U , please.
A: 1.39

Q: For the variant shown here, U7A U8C G9C U10A U11C C12U , give the reported aptazyme ON/OFF ratio.
A: 1.13

Q: Using the record for U7C U8G G9A U10G U11A C13A , report its aptazyme ON/OFF ratio.
A: 1.09

Q: What value of aptazyme ON/OFF ratio has been reported for the following variant? U7G U8C G9A U10A U11C C12G
A: 1.13

Q: Requested read-out: aptazyme ON/OFF ratio. Entry: U7G U8G G9A U11G C12U C13G
A: 1.25

Q: Given U7G U8A G9A U11C C12G , state its recorded aptazyme ON/OFF ratio.
A: 1.21

Q: Would you kindly share the measured aptazyme ON/OFF ratio for U8G G9U U10G U11G C12U C13U ?
A: 1.18

Q: Which value of aptazyme ON/OFF ratio has been reported for G9A U10A U11A C12A C13A in the records?
A: 1.4

Q: Consider the variant shown here: U8G G9A U11A C13U What is its recorded aptazyme ON/OFF ratio?
A: 1.23

Q: Sample U8G G9U U10G C12A — what was its aptazyme ON/OFF ratio?
A: 1.04

Q: Query: aptazyme ON/OFF ratio; subject: U8C U10C U11C C12U C13U
A: 1.28

Q: What does the record list as aptazyme ON/OFF ratio for U7G U8G U10G U11A ?
A: 1.66

Q: What value of aptazyme ON/OFF ratio has been recorded for this entry: U7G U8G U11C C12A C13A
A: 1.42
